# System tested: UniProt P78549
# Sequence (P78549 whole entry): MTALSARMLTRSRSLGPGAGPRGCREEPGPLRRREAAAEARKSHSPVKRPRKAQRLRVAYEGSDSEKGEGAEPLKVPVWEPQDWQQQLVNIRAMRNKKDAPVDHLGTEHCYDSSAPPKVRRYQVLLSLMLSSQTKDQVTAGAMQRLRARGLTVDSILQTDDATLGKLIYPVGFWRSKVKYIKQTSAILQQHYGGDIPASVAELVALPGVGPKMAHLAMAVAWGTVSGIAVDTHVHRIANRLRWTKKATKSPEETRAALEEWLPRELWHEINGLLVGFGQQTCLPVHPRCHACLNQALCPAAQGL
# Stated conditions: Compound Concentration 10.0 uM, Hit No
# Description: Inhibition of NTHL1 by quantifying inhibition of NTHL1-mediated cleavage and dissociation of quenched duplex DNA oligonucleotides, measured as fluorescence at 594 nm.
Recorded metric: inhibition (%)
Respond with the bare value in %.

stdin: Fill in the blank: the reported inhibition of FC(F)(F)c1c(N2CCC(c3ccccc3)CC2)ccn2c(CC3CC3)nnc12 is ____.
stdout: 7.79

stdin: Fill in the blank: the reported inhibition of COc1cc(-c2cn[nH]c2)ccc1C(=O)Nc1ccc2c(c1)CCNCC2 is ____.
stdout: -8.28

stdin: Fill in the blank: the reported inhibition of Cc1cccc(CCN2CCC(C(=O)c3ccc(NS(C)(=O)=O)cc3)CC2)n1 is ____.
stdout: 0.568

stdin: Fill in the blank: the reported inhibition of CC(C)c1c(NC(=O)Nc2ccc(Cl)cc2)c(=O)n(-c2ccccc2)n1C is ____.
stdout: 12.9

stdin: Fill in the blank: the reported inhibition of Cc1ccc2nc(CNCCCOc3ccccc3)cc(O)c2c1 is ____.
stdout: 2

stdin: Fill in the blank: the reported inhibition of CN1CCC[C@H]1c1cccnc1 is ____.
stdout: 8

* * *

# System tested: Endonuclease 8-like 1 (Homo sapiens);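 note: fluorescence at 594 nm from quenched duplex DNA oligonucleotides released by NEIL1 cleavage and strand separation, reported as reduction of this enzyme activity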
# Stated conditions: Compound Concentration 10.0 uM, Hit No
# Description: Inhibition of NEIL1 by quantifying inhibition of NEIL1-mediated cleavage and dissociation of quenched duplex DNA oligonucleotides, measured as fluorescence at 594 nm.
Recorded metric: inhibition (%)
Respond with the bare value in %.

stdin: Fill in the blank: the reported inhibition of CCN(Cc1ccc(Cl)cc1)c1ncc(C(=O)NCCCN2CCCC2=O)c(NC2CCCC2)n1 is ____.
stdout: -2.37

stdin: Fill in the blank: the reported inhibition of NCCc1ccc(O)c(O)c1 is ____.
stdout: 2.32

stdin: Fill in the blank: the reported inhibition of CN(CCOc1ccc(C[C@H](Nc2ccccc2C(=O)c2ccccc2)C(=O)O)cc1)c1ccccn1 is ____.
stdout: 5.16

stdin: Fill in the blank: the reported inhibition of COc1ccc(S(=O)(=O)c2cc(OC)ccc2S(=O)(=O)c2ccc([C@H](C)NS(C)(=O)=O)cc2)cc1 is ____.
stdout: 2.76

stdin: Fill in the blank: the reported inhibition of O=C(O)C1CN(Cc2ccc(OCc3ccc(Cl)c(Cl)c3)cc2)C1 is ____.
stdout: 5.13

* * *

# System tested: Endonuclease 8-like 2 (Homo sapiens);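 note: fluorescence at 594 nm reports NEIL2 cutting and release of a quenched double-stranded DNA oligo substrate, reduced signal read as inhibition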
# Stated conditions: Compound Concentration 10.0 uM, Hit No
# Description: Inhibition of NEIL2 by quantifying inhibition of NEIL2-mediated cleavage and dissociation of quenched duplex DNA oligonucleotides, measured as fluorescence at 594 nm.
Give inhibition for every item shown.
Respond with the bare value in %.

stdin: Find inhibition (Endonuclease 8-like 2 (Homo sapiens)) for the entry N#Cc1c(N)nc(SCC(N)=O)c(C#N)c1-c1ccc(OCC2CC2)cc1
stdout: 6.25

stdin: Find inhibition (Endonuclease 8-like 2 (Homo sapiens)) for the entry CCc1nc2c(o1)CC(c1ccc(C)cc1C)CC2=O (stereo not given)
stdout: 6.53

stdin: Find inhibition (Endonuclease 8-like 2 (Homo sapiens)) for the entry O=C1COc2nccc(-c3ccccc3F)c2CN1Cc1cc(C(F)(F)F)cc(C(F)(F)F)c1
stdout: -2.98

stdin: Find inhibition (Endonuclease 8-like 2 (Homo sapiens)) for the entry COCCCS(=O)(=O)c1cc(C)c(-c2ccc(F)c3c2CC[C@H]3Oc2ccc3c(c2)OC[C@H]3CC(=O)O)c(C)c1
stdout: 6.65

stdin: Find inhibition (Endonuclease 8-like 2 (Homo sapiens)) for the entry CCCn1c(=O)c2[nH]c(-c3cnn(Cc4cccc(C(F)(F)F)c4)c3)nc2n(CC)c1=O
stdout: -0.234

stdin: Find inhibition (Endonuclease 8-like 2 (Homo sapiens)) for the entry COc1ccc(S(=O)(=O)c2cc(OC)ccc2S(=O)(=O)c2ccc([C@H](C)NS(C)(=O)=O)cc2)cc1
stdout: 4.76

stdin: Find inhibition (Endonuclease 8-like 2 (Homo sapiens)) for the entry c1nc(CC2CCNCC2)c[nH]1
stdout: -0.983

stdin: Find inhibition (Endonuclease 8-like 2 (Homo sapiens)) for the entry Cc1nnc2ccc(-c3cccc(C(F)(F)F)c3)nn12
stdout: -0.86

stdin: Find inhibition (Endonuclease 8-like 2 (Homo sapiens)) for the entry O=c1ccn([C@@H]2O[C@H](COP(=O)(O)OP(=O)(O)OP(=O)(O)O)[C@@H](O)[C@H]2O)c(=O)[nH]1
stdout: -9.97

stdin: Find inhibition (Endonuclease 8-like 2 (Homo sapiens)) for the entry CN1CCC[C@H]1c1cccnc1
stdout: -0.35
